# ABSOLUTE SEGMENTED NEUTROPHIL listing for each entry below
# Organism: Rattus norvegicus
# method-summary: DrugMatrix - Regimen: Daily Repeat
# Type: toxicity, organism-based, Sprague-Dawley
# Set-up: regimen Daily Repeat, gender Male, age 6-8 weeks
# experimental-setup: in vivo, ip, 0 mg/kg, […], tissue Blood, route intraperitoneal, dose level Control, time 28 day, vehicle 100 % SALINE
Respond with the figure and its unit, in that order.

>>> df
     substance     test_value
0  CARBOPLATIN  1560 cells/µL

Field: next substance
Query: Any idea what ABSOLUTE SEGMENTED NEUTROPHIL was measured for GOLD SODIUM THIOMALATE ?
Result: 1560 cells/µL

###

# Species on record: Rattus norvegicus
# method-summary: DrugMatrix - Regimen: Daily Repeat
# Type: toxicity, organism-based, Sprague-Dawley
# Parameters: regimen Daily Repeat, gender Male, age 6-8 weeks
# experimental-setup: in vivo, po, 0 mg/kg, 72 h, tissue Plasma, route oral GAVAGE, dose level Control, time 3 day, vehicle .5 % CMC
readout-type: CREATINE PHOSPHOKINASE (u/L)
Quick note: give the figure in u/L, leave out the unit.

// below: answered compounds
compound	u	test-value
O=C1CCc2cc(OCCCCc3nnnn3C3CCCCC3)ccc2N1 [CILOSTAZOL]	u/L	156.17
CCc1ccc(C(=O)C(C)CN2CCCCC2)cc1 (configuration not stated) [EPERISONE]	u/L	301
CC[C@H]1OC(=O)[C@H](C)[C@@H](O[C@H]2C[C@@](C)(OC)[C@@H](O)[C@H](C)O2)[C@H](C)[C@@H](O[C@@H]2O[C@H](C)C[C@H](N(C)C)[C@H]2O)[C@](C)(O)C[C@@H](C)/C(=N\OCOCCOC)[C@H](C)[C@@H](O)[C@]1(C)O [ROXITHROMYCIN]	u/L	123.5
COC(=O)c1ccc(O)cc1 [METHYLPARABEN]	u/L	464.83
C=C1CC[C@H](O)C/C1=C/C=C1\CCC[C@]2(C)[C@@H]([C@H](C)/C=C/[C@H](C)C(C)C)CC[C@@H]12 [ERGOCALCIFEROL]	u/L	216.5
CN1C(C(=O)Nc2ccccn2)=C(O)c2ccccc2S1(=O)=O [PIROXICAM]	u/L	166.83

Field: next compound
Query: Any idea what CREATINE PHOSPHOKINASE was measured for CC(C)[C@H](N)C(=O)OCCOCn1cnc2c(=O)[nH]c(N)nc21 [VALACYCLOVIR] ?
Result: 788

###

# TOTAL PROTEIN listing for each entry below
# Organism: Rattus norvegicus
# method-summary: DrugMatrix - Regimen: Daily Repeat
# Format: toxicity, organism-based, Sprague-Dawley
# Design: regimen Daily Repeat, gender Male, age 6-8 weeks
# experimental-setup: in vivo, po, 0 mg/kg, 72 h, tissue Plasma, route oral GAVAGE, dose level Control, time 3 day, […]
Quick note: give the figure in G/DL, leave out the unit.

// below: answered molecules
>>> df
                                   molecule  test_value
0  CSc1ccc2c(c1)N(CCC1CCCCN1C)c1ccccc1S2 (stereo not given)         5.8
1  CCCC[C@@H](CC)COC(=O)c1ccccc1C(=O)OC[C@@H](CC)CCCC [BIS(2-ETHYLHEXYL)PHTHALATE]        5.43
2                c1ccc2[nH]c(-c3cscn3)nc2c1        5.43
3  COc1ccc2c(c1)c(CC(=O)OCC(=O)O)c(C)n2C(=O)c1ccc(Cl)cc1        5.92

Query: Any idea what TOTAL PROTEIN was measured for CN(C)CCCC1(c2ccc(F)cc2)OCc2cc(C#N)ccc21 (stereo not given) ?
Result: 5.77

The reported numbers originate from ChEMBL document CHEMBL3885881.
